Target: T1, recombinant human ErbB2/Fc chimera (human, UniProt P04626 23-652)
T1 construct: bought from R&D Systems; also called rhErbB2-Fc; rhErb2-Fc; Fc part of the bought chimera not given; not described
Assay: ELISA, coated ErbB2/Fc

{"columns": ["binder", "binding result"],
 "data": [
  ["13G74/1-125 (VHH, C-term myc-His6 tag) VHH: EVQLVESGGGLVQAGGSLRLSCATSGRTFSTYASMGWFRQTPGKEREFVAAITSSGSTNYADSVKGRFTISRDNAKNTVYLQMNSLKPEDTAVYYCGARVNYAAYSRLEHDYHYWGQGTQVTVSS", "binds"],
  ["15D8 (VHH, C-term myc-His6 tag) VHH: EVQLVESGGGLVQPGGSLKLSCVASTIPASIRTMAWYRQTPGNQRDWLATIGSSGTPAYADSVKGRFTVSRDNAKNTVYLQMNSLKPEDTAVYYCRDVNGDYWGQGTQVTVSS", "binds"]
]}
